- measurement-protocol: PK Oral (MMV)
- Format: in vivo
- cond: in vivo, dose 25 mg/kg
Cmax listing for selected compounds.
observable: Cmax (µM)

| mol-smiles | unit-descriptor | result-value |
| --- | --- | --- |
| CCOCCNc1ncnc2c1c(-c1ccc3cc(OCC)ccc3c1)cn2CC(C)(C)O | µM | 7.8 |
| CNc1ncnc2c1c(-c1ccc3cc(OC4CC4)ccc3c1)nn2CC(C)(C)O | µM | 34 |
| CCOc1ccc2cc(-c3cn(CC(C)(C)O)c4ncnc(OCCOC)c34)ccc2c1 | µM | 5.1 |

* * *

- measurement-protocol: in vitro
- cond: human, CRL-8155 lymphoblastoid cell line
CC50 listing for selected compounds.

| compound | CC50 |
| --- | --- |
| CNc1ncnc2c1c(-c1ccc(-c3ccccc3)cc1)cn2CC(C)(C)O [Example 13] | > 80 µM |
| CCOc1ccc2cc(-c3nn(CC(C)(C)O)c4ncnc(NC)c34)ccc2c1 [Example 14] | > 80 µM |
| CCOc1ccc2cc(-c3cn(CC(C)(C)OC)c4ncnc(NC)c34)ccc2c1 [Example 18] | > 80 µM |
| CCOc1ccc2cc(-c3cn(CC(C)(C)O)c4ncnc(NC)c34)ccc2c1 [Example 11] | > 80 µM |
| CNc1ncnc2c1c(-c1ccc(-c3ccccc3)cc1)nn2CC(C)(C)O [Example 12] | > 80 µM |
| CNc1ncnc2c1c(-c1cccc(Cl)c1)cn2CC(C)(C)OC [Example 22] | > 80 µM |
| CCOc1ccc2cc(-c3cn(CC(C)(C)O)c4ncnc(OCC)c34)ccc2c1 [Example 5] | > 80 µM |
| COCCOc1ncnc2c1c(-c1ccc(-c3ccccc3)cc1)cn2CC(C)(C)O [Example 4] | > 80 µM |
| COCCOc1ncnc2c1c(-c1ccc3cc(OC4CC4)ccc3c1)cn2CC(C)(C)O [Example 2] | > 40 µM |
| CCOc1ncnc2c1c(-c1ccc3cc(OC4CC4)ccc3c1)cn2CC(C)(C)O [Example 6] | > 40 µM |
| CNc1ncnc2c1c(-c1ccc3cc(OC4CC4)ccc3c1)cn2CC(C)(C)O [Example 15] | > 80 µM |
| CNc1ncnc2c1c(-c1ccc3cc(OC4CC4)ccc3c1)nn2CC(C)(C)O [Example 1] | > 80 µM |
| CC(C)(O)Cn1cc(-c2ccc3cc(OC4CC4)ccc3c2)c2c(NCCOCCOCCOCCN)ncnc21 [Example 28] | 15.4 µM |

Hey, just so you know, these numbers are from patent US12522606B2.
